- target-desc: Lck (Homo sapiens)
- Construct: purchased Reaction Biology Corp
- experiment-description: In vitro kinase assay (IC50)
- Assay type: biochemical
Where a SMILES comes first, the peptide text is derived from it. [ ]: non-standard residue; d: D form. The star is where a group is joined. X1 = Cc1ccc(Nc2ncc3c(n2)N(C)C(=O)N(c2cc(C(=O)*)ccc2C)C3)cn1; Aib = CC(C)(N)C(=O)O
parameter: pIC50
To interpret pIC50, take it as minus log10 of a concentration measured in moles per litre.

Below, 2 molecules whose answers are already recorded.
molecule | target-desc | observed-measurement
Cc1ccc(Nc2ncc3c(n2)N(C)C(=O)N(c2cc(C(=O)N[C@H](C(=O)N4CCC[C@H]4C(=O)N[C@@H](Cc4ccccc4)C(=O)N[C@@H](CC(C)C)C(=O)N(C)C)C(C)C)ccc2C)C3)cn1 [7i] (X1-VPFL-NMe2) | Lck (Homo sapiens) | 7.21
COCCN1C(=O)[C@H](CC(C)C)N=C(c2ccccc2)c2ccc(C(=O)Nc3ccc(C)c(N4Cc5cnc(Nc6ccc(C)nc6)nc5N(C)C4=O)c3)cc21 [11n] | Lck (Homo sapiens) | 7.80

The record that follows has no pIC50 shown yet.
## Task Suppose we examine the molecule Cc1ccc(Nc2ncc3c(n2)N(C)C(=O)N(c2cc(C(=O)N[C@H](C(=O)N4CCC[C@@H]4C(=O)NC(C)(C)C(=O)N[C@H](C(=O)N(C)C)C(C)C)C(C)C)ccc2C)C3)cn1 [7o] (X1-V[dP][Aib]V-NMe2) ; what pIC50 value has been reported?
## Result 5.98

====

- target-desc: Lck (Homo sapiens, UniProt P06239)
- Construct: purchased Reaction Biology Corp
- Sequence (P06239 whole entry): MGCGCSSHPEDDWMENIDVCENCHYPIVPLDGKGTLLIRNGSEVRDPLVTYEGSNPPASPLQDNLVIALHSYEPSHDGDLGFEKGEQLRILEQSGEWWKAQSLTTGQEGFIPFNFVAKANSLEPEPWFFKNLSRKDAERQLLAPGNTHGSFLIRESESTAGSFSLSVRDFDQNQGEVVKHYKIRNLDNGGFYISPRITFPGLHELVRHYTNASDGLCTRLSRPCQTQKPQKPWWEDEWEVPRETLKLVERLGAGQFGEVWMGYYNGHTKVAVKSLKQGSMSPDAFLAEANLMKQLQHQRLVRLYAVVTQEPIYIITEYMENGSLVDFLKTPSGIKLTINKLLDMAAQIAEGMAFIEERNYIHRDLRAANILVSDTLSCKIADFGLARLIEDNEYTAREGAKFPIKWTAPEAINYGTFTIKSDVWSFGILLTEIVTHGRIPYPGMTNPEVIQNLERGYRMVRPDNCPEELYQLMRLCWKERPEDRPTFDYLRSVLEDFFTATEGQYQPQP
- experiment-description: In vitro kinase assay (IC50)
- Format: biochemical
Where a SMILES comes first, the peptide text is derived from it. [ ]: non-standard residue; d: D form. The star is where a group is joined. X1 = Cc1ccc(Nc2ncc3c(n2)N(C)C(=O)N(c2cc(C(=O)*)ccc2C)C3)cn1; Chg = N[C@H](C(=O)O)C1CCCCC1; Aib = CC(C)(N)C(=O)O

compound | target-desc | selectivity for Lck over c-Src
Cc1ccc(Nc2ncc3c(n2)N(C)C(=O)N(c2cc(C(=O)N[C@H](C(=O)N4CCC[C@H]4C(=O)NC(C)(C)C(=O)N[C@@H](CC(C)C)C(=O)N(C)C)C4CCCCC4)ccc2C)C3)cn1 [7s] (X1-[Chg]P[Aib]L-NMe2) | Lck (Homo sapiens, UniProt P06239) | > 10 fold
Cc1ccc(Nc2ncc3c(n2)N(C)C(=O)N(c2cc(C(=O)N[C@@H](CC(C)C)C(=O)N4CCC[C@H]4C(=O)NC(C)(C)C(=O)N[C@@H](CC(C)C)C(=O)N(C)C)ccc2C)C3)cn1 [7q] (X1-LP[Aib]L-NMe2) | Lck (Homo sapiens, UniProt P06239) | > 10 fold
Cc1ccc(Nc2ncc3c(n2)N(C)C(=O)N(c2cc(NC(=O)c4ccc5c(c4)N(Cc4ccccc4)C(=O)[C@H](CC(C)C)N=C5c4ccccc4)ccc2C)C3)cn1 [11b] | Lck (Homo sapiens, UniProt P06239) | over 10 fold
Cc1ccc(Nc2ncc3c(n2)N(C)C(=O)N(c2cc(C(=O)N[C@H](C(=O)N4CCC[C@H]4C(=O)NC(C)(C)C(=O)N[C@@H](CC(C)C)C(=O)N(C)C)C(C)C)ccc2C)C3)cn1 [7a] (X1-VP[Aib]L-NMe2) | Lck (Homo sapiens, UniProt P06239) | over 10 fold

====

- target-desc: p38a (Homo sapiens)
- Construct: purchased Reaction Biology Corp
- experiment-description: In vitro kinase assay (IC50)
- Format: biochemical
Where a SMILES comes first, the peptide text is derived from it. [ ]: non-standard residue; d: D form. The star is where a group is joined. X1 = Cc1ccc(Nc2ncc3c(n2)N(C)C(=O)N(c2cc(C(=O)*)ccc2C)C3)cn1; Aib = CC(C)(N)C(=O)O
parameter: pIC50
Lab note: report pIC50 as minus log10 of the concentration in molar units, number only.

Known results for compounds:
compound | pIC50
CC[C@@H](C)[C@H]1N=C(c2ccccc2)c2ccc(C(=O)Nc3ccc(C)c(N4Cc5cnc(Nc6ccc(C)nc6)nc5N(C)C4=O)c3)cc2NC1=O [11e] | 6.60
Cc1ccc(Nc2ncc3c(n2)N(C)C(=O)N(c2cc(NC(=O)c4ccc5c(c4)NC(=O)[C@H](C)N=C5c4ccccc4)ccc2C)C3)cn1 [11c] | 7.83

## Task # value lookup — system p38a (Homo sapiens), readout pIC50, item Cc1ccc(Nc2ncc3c(n2)N(C)C(=O)N(c2cc(C(=O)N[C@H](C(=O)N4CCC[C@@H]4C(=O)NC(C)(C)C(=O)N[C@@H](CC(C)C)C(=O)N(C)C)C(C)C)ccc2C)C3)cn1 [7b] (X1-V[dP][Aib]L-NMe2)
## Result 5.69

====

- target-desc: p38a (Homo sapiens, UniProt Q16539)
- Sequence (Q16539 whole entry): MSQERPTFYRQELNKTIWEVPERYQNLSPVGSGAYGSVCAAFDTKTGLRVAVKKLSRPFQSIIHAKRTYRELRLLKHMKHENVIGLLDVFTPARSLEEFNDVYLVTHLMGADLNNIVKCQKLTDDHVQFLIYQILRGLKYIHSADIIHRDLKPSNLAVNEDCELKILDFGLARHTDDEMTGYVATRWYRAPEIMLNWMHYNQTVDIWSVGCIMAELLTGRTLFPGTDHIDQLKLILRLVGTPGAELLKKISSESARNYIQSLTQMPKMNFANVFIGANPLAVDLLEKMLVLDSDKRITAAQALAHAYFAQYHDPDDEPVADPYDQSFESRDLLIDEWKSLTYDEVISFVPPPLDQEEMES
Parameter: IC50. Scope: all listed entries.
Expressed in nM, but write only the number.

Example compounds with recorded IC50:
compound | parameter | observed-measurement
Cc1ccc(Nc2ncc3c(n2)N(C)C(=O)N(c2cc(NC(=O)c4ccc5c(c4)NC(=O)[C@H](Cc4ccccc4)N=C5c4ccccc4)ccc2C)C3)cn1 [11a] | IC50 | 1830
Cc1ccc(Nc2ncc3c(n2)N(C)C(=O)N(c2cc(NC(=O)c4ccc5c(c4)N(Cc4ccccc4)C(=O)[C@H](CC(C)C)N=C5c4ccccc4)ccc2C)C3)cn1 [11b] | IC50 | 3430

Okay, next one:
## Task # returns recorded IC50 (system: p38a (Homo sapiens, UniProt Q16539)) for Cc1ccc(Nc2ncc3c(n2)N(C)C(=O)N(c2cc(NC(=O)c4ccc5c(c4)N(Cc4ccccc4)C(=O)[C@H](C)N=C5c4ccccc4)ccc2C)C3)cn1 [11d]
## Result 101

====

// reported log10 IC50 for each item listed
- target-desc: Lck (Homo sapiens, UniProt P06239)
- Construct: purchased Reaction Biology Corp
- experiment-description: In vitro kinase assay (IC50)
- Format: biochemical
Where a SMILES comes first, the peptide text is derived from it. [ ]: non-standard residue; d: D form. The star is where a group is joined. X1 = Cc1ccc(Nc2ncc3c(n2)N(C)C(=O)N(c2cc(C(=O)*)ccc2C)C3)cn1; Ac3c = NC1(C(=O)O)CC1; Aib = CC(C)(N)C(=O)O
Short version: log10 scale, IC50, nM.

compound | log10 IC50
Cc1ccc(Nc2ncc3c(n2)N(C)C(=O)N(c2cc(NC(=O)c4ccc5c(c4)N(CC(=O)NCc4ccccc4)C(=O)[C@H](CC(C)C)N=C5c4ccccc4)ccc2C)C3)cn1 [11o] | 1.44

## Task Need log10 IC50 of Cc1ccc(Nc2ncc3c(n2)N(C)C(=O)N(c2cc(C(=O)N[C@H](C(=O)N4CCC[C@H]4C(=O)NC(C)(C)C(=O)N[C@H](C(=O)N(C)C)C(C)C)C(C)C)ccc2C)C3)cn1 [7n] (X1-VP[Aib]V-NMe2) , thanks.
## Result 2.86

## Task # query: log10 IC50 of entry Cc1ccc(Nc2ncc3c(n2)N(C)C(=O)N(c2cc(NC(=O)c4ccc5c(c4)N(C)C(=O)[C@H](CC(C)C)N=C5c4ccccc4)ccc2C)C3)cn1 [11h]
## Result 1.39

## Task Recorded log10 IC50 of Cc1ccc(Nc2ncc3c(n2)N(C)C(=O)N(c2cc(NC(=O)c4ccc5c(c4)N(CC(C)C)C(=O)[C@H](CC(C)C)N=C5c4ccccc4)ccc2C)C3)cn1 [11j] , please.
## Result 2.12

## Task Need log10 IC50 of Cc1ccc(Nc2ncc3c(n2)N(C)C(=O)N(c2cc(C(=O)N[C@H](C(=O)N4CCC[C@H]4C(=O)NC(C)(C)C(=O)NCC(=O)N(C)C)C(C)C)ccc2C)C3)cn1 [7u] (X1-VP[Aib]G-NMe2) , thanks.
## Result 2.24

## Task // lookup log10 IC50 for Cc1ccc(Nc2ncc3c(n2)N(C)C(=O)N(c2cc(C(=O)N[C@H](C(=O)N4CCC[C@@H]4C(=O)NC4(C(=O)N[C@@H](CC(C)C)C(=O)N(C)C)CC4)C(C)C)ccc2C)C3)cn1 [7e] (X1-V[dP][Ac3c]L-NMe2)
## Result 2.11

====

- target-desc: c-Src (Homo sapiens)
- Sequence (P12931 whole entry): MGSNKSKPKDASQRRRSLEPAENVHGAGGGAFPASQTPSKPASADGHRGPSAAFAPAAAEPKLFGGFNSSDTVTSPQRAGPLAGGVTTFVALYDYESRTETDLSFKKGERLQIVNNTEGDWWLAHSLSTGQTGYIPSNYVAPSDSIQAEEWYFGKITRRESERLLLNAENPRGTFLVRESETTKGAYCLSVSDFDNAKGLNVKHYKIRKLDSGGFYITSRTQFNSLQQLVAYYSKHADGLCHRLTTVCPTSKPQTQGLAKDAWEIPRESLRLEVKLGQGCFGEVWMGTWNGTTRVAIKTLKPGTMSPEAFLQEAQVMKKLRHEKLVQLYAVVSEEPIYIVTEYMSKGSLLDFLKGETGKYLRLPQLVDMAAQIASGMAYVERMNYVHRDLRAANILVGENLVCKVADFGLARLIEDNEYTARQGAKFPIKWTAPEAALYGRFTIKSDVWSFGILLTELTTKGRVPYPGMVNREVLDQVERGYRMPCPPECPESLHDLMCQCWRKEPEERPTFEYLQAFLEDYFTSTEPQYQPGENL
pIC50: −log10 of the molar value. Where a SMILES comes first, the peptide text is derived from it. [ ]: non-standard residue; d: D form. The star is where a group is joined. X1 = Cc1ccc(Nc2ncc3c(n2)N(C)C(=O)N(c2cc(C(=O)*)ccc2C)C3)cn1; Chg = N[C@H](C(=O)O)C1CCCCC1; Aib = CC(C)(N)C(=O)O
Would you please tag the item True when its pIC50 is 7 or above, and False when it is below?

## Task Decide: is the reported value of pIC50 for Cc1ccc(Nc2ncc3c(n2)N(C)C(=O)N(c2cc(NC(=O)c4ccc5c(c4)N(Cc4ccccc4)C(=O)[C@H](CC(C)C)N=C5c4ccccc4)ccc2C)C3)cn1 [11b] equal to or greater than 7?
## Result False

## Task Determine whether measured pIC50 meets or exceeds 7 for C=CCN1C(=O)[C@H](CC(C)C)N=C(c2ccccc2)c2ccc(C(=O)Nc3ccc(C)c(N4Cc5cnc(Nc6ccc(C)nc6)nc5N(C)C4=O)c3)cc21 [11i]
## Result False

## Task Could you please find out whether Cc1ccc(Nc2ncc3c(n2)N(C)C(=O)N(c2cc(C(=O)N[C@H](C(=O)N4CCC[C@@H]4C(=O)NC(C)(C)C(=O)N[C@H](C(=O)N(C)C)C(C)C)C(C)C)ccc2C)C3)cn1 [7o] (X1-V[dP][Aib]V-NMe2) has pIC50 that meets 7 or exceeds it?
## Result False

## Task Is pIC50 for C=CCCC1=N[C@@H](CC(=O)Nc2ccc(C)c(N3Cc4cnc(Nc5ccc(C)nc5)nc4N(C)C3=O)c2)C(=O)N(Cc2ccccc2)c2ccccc21 [11q] at or above 7?
## Result True

## Task Can Cc1ccc(Nc2ncc3c(n2)N(C)C(=O)N(c2cc(C(=O)N[C@H](C(=O)N4CCC[C@@H]4C(=O)NCC(=O)N[C@@H](CC(C)C)C(=O)N(C)C)C(C)C)ccc2C)C3)cn1 [7h] (X1-V[dP]GL-NMe2) be said to have pIC50 at or above 7?
## Result False

## Task Determine whether measured pIC50 meets or exceeds 7 for CC1=N[C@@H](CC(C)C)C(=O)N(C)c2cc(C(=O)Nc3ccc(C)c(N4Cc5cnc(Nc6ccc(C)nc6)nc5N(C)C4=O)c3)ccc21 [11m]
## Result True

## Task Does the molecule C=CCCC1=N[C@@H](CC(=O)Nc2ccc(C)c(N3Cc4cnc(Nc5ccc(C)nc5)nc4N(C)C3=O)c2)C(=O)N(C)c2ccccc21 [11p] have recorded pIC50 that is 7 or more?
## Result True

## Task Reported pIC50 at or above 7? Cc1ccc(Nc2ncc3c(n2)N(C)C(=O)N(c2cc(C(=O)N[C@H](C(=O)N4CCC[C@H]4C(=O)NC(C)(C)C(=O)N[C@@H](CC(C)C)C(=O)N(C)C)C4CCCCC4)ccc2C)C3)cn1 [7s] (X1-[Chg]P[Aib]L-NMe2)
## Result False

## Task State whether the measured pIC50 reaches 7, counting equality as reaching it, for Cc1ccc(Nc2ncc3c(n2)N(C)C(=O)N(c2cc(NC(=O)c4ccc5c(c4)NC(=O)[C@H](C)N=C5c4ccccc4)ccc2C)C3)cn1 [11c]
## Result True
